- Method: growth inhibition of non-replicating M. tuberculosis (AID 488890);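 also: plate controls were DMSO cells for no effect and high antibiotic wells for full effect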
- Test settings: Mycobacterium tuberculosis non-replicating, at 25 µM, stronger effect = higher value
About 1,300 (0.41%) of roughly 320,000 compounds were called active. Another 3% or so got no clear call; they are omitted. Not all results are given here. Entries with a potency or affinity are not part of this list.
Readout kind: inhibition (%)

Molecule	Reported value
Cc1sc2nc(SCC(=O)NCCOCCO)n(C)c(=O)c2c1C	-0.17
CC1=NN(C(=O)c2ccccc2Cl)C(O)(c2cccnc2)C1 (configuration not stated)	-11.1
Cc1ccc(S(=O)(=O)Nc2ccccc2F)cc1C(=O)NCCCN1CCCC1=O	-4.79
CCNC(=S)NNC(=O)c1ccccc1OC(F)F	-5.06
CCC1(O)CC(C(=O)OC)=NN1C(=O)c1ccccc1 (configuration not stated)	50.2
Nc1ccc(C(=O)N2N=C(c3ccccc3)CC2(O)C(F)(F)F)cc1 (configuration not stated)	18.4
COC(=O)C1=NN(C(=O)c2ccc(C)cc2)C(O)(c2ccc(Cl)cc2)C1 (configuration not stated)	68.2
Cc1ccc(NC(=O)COC(=O)Cn2c(C)csc2=O)cc1	7.46
CCOC(=O)N1N=C(c2ccccc2)CC1(O)C(F)(F)F (configuration not stated)	-6.72
CCCCN1CC(COc2ccccc2)OC1=O (configuration not stated)	72.5
CC1=NN(C(=O)c2ccccc2Br)C(O)(c2cccnc2)C1 (configuration not stated)	1.25
CC1=NN(C(=O)CCc2ccccc2)C(O)(c2ccncc2)C1 (configuration not stated)	-17.3

----------
- Method: growth inhibition of non-replicating M. tuberculosis (AID 488890)
- Test settings: Mycobacterium tuberculosis non-replicating, at 25 µM, stronger effect = higher value
Screen size: about 320,000 compounds; about 1,300 (0.41%) were called active. Roughly 3% stayed inconclusive and do not appear here. These entries were drawn from the full list. Potency and affinity values are given separately.
Readout kind: inhibition

Compound	Readout kind	Reported value
Cc1ccc2cc(/C=N/NC(=O)CN3CCOCC3)c(Cl)nc2c1	inhibition	6.43%
O=C(Nc1cccc(-n2cnnn2)c1)c1cnccc1Cl	inhibition	-2.47%
CCOc1ccc(NC(=O)CCC(=O)NNC(=O)COc2ccc(C)cc2)cc1	inhibition	-22.8%
COc1cccc(CNCC(O)(c2ccc(Cl)cc2)c2ccc(Cl)cc2)c1	inhibition	31.2%
O=C(NC1CCCCC1)C(c1cccnc1)N(C(=O)c1ccc(Cl)nc1)C1CCCCC1 (centres undefined)	inhibition	20.7%
Cc1[nH]nc2c1C(c1ccc(-c3ccccc3C#N)o1)C(C#N)=C(N)O2 (centres undefined)	inhibition	49.7%
O=C(NCCNC1CCCCC1)c1ccco1	inhibition	-9.39%
C=CCn1c(O)c(N=NC(=O)C(O)c2ccccc2)c2ccccc21 (centres undefined)	inhibition	15.4%
O=C(CNC(=O)c1ccc(Br)o1)NCc1ccc(F)cc1	inhibition	23.3%
O=C1OCCC1Sc1nnc(-c2ccc3c(c2)OCO3)o1 (centres undefined)	inhibition	0.17%
Cc1cc(Cl)ccc1OCC(=O)Nc1cccnc1	inhibition	41%
FC(F)(F)c1cc(CO[C@@H]2CCCN[C@@H]2c2ccccc2)cc(C(F)(F)F)c1	inhibition	63.4%
O=C(O)c1ccc(CNC(=O)c2ccc(Br)o2)cc1	inhibition	21.4%
CCN1CCN(C(=O)N(c2ccccc2)c2ccccc2)CC1	inhibition	-28.4%
O=C(CSc1nnc(Cn2nnc3ccccc32)o1)Nc1cccc(Cl)c1	inhibition	3.51%
O=C(CNC(=O)c1ccco1)NC1CCCCCC1	inhibition	5.43%
COc1ccc(CN2C(=O)c3ccccc3C2OC)cc1 (centres undefined)	inhibition	43.5%
CCC(=O)NCCNc1ccc([N+](=O)[O-])cn1	inhibition	-5.26%
CCCCN(C(=O)CSc1nnc(-c2ccccc2)n1C)c1c(N)n(Cc2ccccc2)c(=O)[nH]c1=O	inhibition	8.96%
O=C(O)CCCC(=O)N1CCN(c2ncccn2)CC1	inhibition	-16.3%
O=C(c1ccc(Cl)cc1)N1CCCCC(Sc2nnc(-c3ccc4c(c3)OCO4)o2)C1=O (centres undefined)	inhibition	17.2%
O=C(NCc1ccncc1)c1ccc(Br)o1	inhibition	12.8%
Cc1cc(C)c(C)c(OCC(=O)O/N=C(\N)c2ccccn2)c1	inhibition	13%
COc1ccc(C(=O)CC(=O)C(=O)Nc2c(C)cccc2C)cc1	inhibition	78.4%

----------
List of inhibition values.
- Method: growth inhibition of non-replicating M. tuberculosis (AID 488890);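 also: plate controls were DMSO cells for no effect and high antibiotic wells for full effect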
- Test settings: Mycobacterium tuberculosis non-replicating, at 25 µM, stronger effect = higher value
Hit rate of the full screen: of about 320,000 compounds, about 1,300 (0.41%) were called active. Inconclusive results (about 3%) are left out. Not all results are given here. Entries with a potency or affinity are not part of this list.
Readout kind: inhibition

Compound	Reported value
Cc1nc2c(=O)oc3ccccc3c2n1-c1ccccc1	66.8%
CCCCn1c(=O)c2ccccc2n2c(=S)[nH]nc12	-11.3%
COc1ccc(C(=O)CN2CCCCC2)cc1	-2.71%
CCC(=O)c1ccc(OCC(O)CN2CCCCC2)cc1 (configuration not stated)	9.06%
O=C(CCCCN1CCCCC1)c1ccccc1	-7.7%
CCCCCn1c(=O)c2ccccc2n2c(=S)[nH]nc12	-0.64%
N=C1S/C(=C\c2ccco2)C(=O)N1c1ccc2c(c1)OCO2	0.43%

----------
- Method: growth inhibition of non-replicating M. tuberculosis (AID 488890);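 also: plate controls were DMSO cells for no effect and high antibiotic wells for full effect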
- Test settings: Mycobacterium tuberculosis non-replicating, at 25 µM, stronger effect = higher value
The campaign covered roughly 320,000 compounds. About 1,300 (0.41%) were called active. Inconclusive results (about 3%) are left out. Not all results are given here. Results with a measured potency or affinity are listed apart.

Molecule	Value units	inhibition
CCOC(=O)N/N=C/c1ccc(N2CCOCC2)s1	%	1.14
CCOC(=O)C1CCCN(C2CC(=O)N(c3ccccc3)C2=O)C1 (stereo not drawn)	%	30.8
Cc1c(C(=O)O)sc2ncn(C)c(=O)c12	%	-3.22
COc1ccc(CCC(=O)NC(C)C2CCCO2)cc1 (stereo not drawn)	%	-3.51
O=C(N/N=C/c1ccc(Br)s1)c1ccc([N+](=O)[O-])cc1	%	10.3
Cc1onc(-c2ccccc2)c1C(=O)N/N=C/c1cccs1	%	51.2
O=C(O)C1CC=CCC1C(=O)c1ccccc1 (stereo not drawn)	%	-2.95
CC(C)NC(=O)c1cc(=O)n(C)c(=O)n1C	%	1.53
Cc1ccc(S(=O)(=O)N2CCN(C(=O)CCOc3cc(C)ccc3C)CC2)cc1	%	39.6
CC(C)C(C)NC(=O)COc1ccc(-c2ccccc2)cc1 (stereo not drawn)	%	-4.32
COCCNC(=O)c1cc2cc(Br)cc(OC)c2oc1=O	%	56
COCCCNC(=O)c1c(N)n(-c2ccc3c(c2)OCO3)c2nc3ccccc3nc12	%	-12.5
O=C(NN=Cc1ccc(N2CCOCC2)s1)c1ccc([N+](=O)[O-])cc1	%	0.11
Cc1ccc(S(=O)(=O)N2CCN(C(=O)c3ccccc3)CC2)cc1	%	9.38
CSc1ccc(CCNC(=O)CCc2nnc3ccc(N4CCC5(CC4)OCCO5)nn23)cc1	%	11.6
CCCCn1c(=O)c(CCC(=O)OCC(=O)Nc2cc(Cl)ccc2OC)nc2ccccc21	%	-2.09
COC(=O)c1sccc1NC(=O)c1c(-c2ccccc2)noc1C	%	27.9
CCC(=O)c1ccc(OCC(=O)OCC(=O)c2cc(C)n(CC3CCCO3)c2C)cc1 (stereo not drawn)	%	70.2
CCCn1c(C(C)Nc2nc(-c3ccc(C)cc3)cs2)nc2cc(Cl)c(Cl)cc21 (stereo not drawn)	%	17.9
O=C1CC(N2CCN(c3ccccc3)CC2)C(=O)N1c1ccc(Cl)cc1 (stereo not drawn)	%	58.5
CCn1cc(C(=O)OCC(=O)NCc2ccc3c(c2)OCO3)c(=O)c2ccc(C)nc21	%	40.4
Cc1ccc(CNC(=O)c2nnn(-c3cccc(C)c3)c2N)cc1	%	27.4
Cc1cc(C(=O)COC(=O)COc2ccc(C#N)cc2)c(C)n1C1CC1	%	47

----------
- Method: growth inhibition of non-replicating M. tuberculosis (AID 488890);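 also: plate controls were DMSO cells for no effect and high antibiotic wells for full effect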
- Test settings: Mycobacterium tuberculosis non-replicating, at 25 µM, stronger effect = higher value
Hit rate of the full screen: of about 320,000 compounds, about 1,300 (0.41%) were called active. Inconclusive results (about 3%) are left out. The list is a sample of the results. Entries with a potency or affinity are not part of this list.
As shown below, each of these molecules has a reported inhibition value.
Readout kind: inhibition (%)

Molecule	Readout kind	Reported value
CC(C)c1ccc(NC(=O)C2CCCN2S(=O)(=O)c2ccccc2F)cc1 (stereo unspecified)	inhibition	-6.6
CSc1nc2sc3c(c2c(=O)[nH]1)CCC(C)C3 (stereo unspecified)	inhibition	-4.35
CC(=O)CSc1nnc(Cc2ccc3c(c2)OCO3)o1	inhibition	73.1
Cc1cc(Br)ccc1SCC(=O)OCC(=O)NC1CCCC1	inhibition	35.6
CC(C)CCOCc1nc2sc3c(c2c(=O)[nH]1)CCC(C)C3 (stereo unspecified)	inhibition	27.8
O=C(CSc1n[nH]c(=O)n1Cc1ccco1)Nc1ccccc1	inhibition	-4.65

Just for reference, PubChem BioAssay AID488890 is where these values come from.
